Measured on: T1, Soluble TSHR (22-260) protein (human, UniProt P16473 22-260)
T1 construct: range 22-260
Protocol details: SPR (Biacore T200, 25 C), antibody captured on anti-human Fc, soluble TSHR (22-260) as analyte, 1:1 fit;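 also: antibodies captured at 0.1 ug/mL on a CM5 sensor chip bearing anti-human Fc, with HBS-EP+ running buffer at pH 7.4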
Below, each entry is listed alongside its reported pKd.
When answering, recall that pKd equals minus log10 of the concentration in mol/L, and write that number alone.

>  <Binder>
TSHB-11 (antibody, V domains shown) VH: EVQLVQSGAEVKKPGESLKISCKASGYSLTDNWIGWVRQKPGKGLEWMGIIYPGDSDTRYSPSFQGQVTISADKSISTAYLQWSSLKASDTAIYYCVGTDWNYNPLRYWGQGTLVTVSS VL: QSVLTQPPSVSAAPGQKVTISCSGSSSDIGSNYVSWYQQFPGTAPKLLIYDNNKRPSAIPDRFSGSKSGTSATLGITGLQTGDEADYYCGTWDSRLGIAVFGGGTQLTVL

>  <pKd>
7.27

$$$$

Return reported pKd; argument: TSHB-5 (antibody, V domains shown) VH: EVQLVQSGAEVKKPGESLKISCKASGYQLTDNWIGWVRQKPGKGLEWMGIIYPGDSDTRYSPSFQGQVTISADKSISTAYLQWSSLKASDTAIYYCVGLDWNYNPLRYWGQGTLVTVSS VL: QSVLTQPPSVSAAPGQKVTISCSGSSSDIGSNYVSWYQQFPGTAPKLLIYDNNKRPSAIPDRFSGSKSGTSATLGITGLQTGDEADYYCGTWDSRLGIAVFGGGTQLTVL
8.55
